Values were extracted from patent US10287255B2.

# ASSAY TARGET: human recombinant HDAC6 (Homo sapiens)
# Construct: purchased Calbiochem 382180
# Sequence (Q9UBN7 whole entry): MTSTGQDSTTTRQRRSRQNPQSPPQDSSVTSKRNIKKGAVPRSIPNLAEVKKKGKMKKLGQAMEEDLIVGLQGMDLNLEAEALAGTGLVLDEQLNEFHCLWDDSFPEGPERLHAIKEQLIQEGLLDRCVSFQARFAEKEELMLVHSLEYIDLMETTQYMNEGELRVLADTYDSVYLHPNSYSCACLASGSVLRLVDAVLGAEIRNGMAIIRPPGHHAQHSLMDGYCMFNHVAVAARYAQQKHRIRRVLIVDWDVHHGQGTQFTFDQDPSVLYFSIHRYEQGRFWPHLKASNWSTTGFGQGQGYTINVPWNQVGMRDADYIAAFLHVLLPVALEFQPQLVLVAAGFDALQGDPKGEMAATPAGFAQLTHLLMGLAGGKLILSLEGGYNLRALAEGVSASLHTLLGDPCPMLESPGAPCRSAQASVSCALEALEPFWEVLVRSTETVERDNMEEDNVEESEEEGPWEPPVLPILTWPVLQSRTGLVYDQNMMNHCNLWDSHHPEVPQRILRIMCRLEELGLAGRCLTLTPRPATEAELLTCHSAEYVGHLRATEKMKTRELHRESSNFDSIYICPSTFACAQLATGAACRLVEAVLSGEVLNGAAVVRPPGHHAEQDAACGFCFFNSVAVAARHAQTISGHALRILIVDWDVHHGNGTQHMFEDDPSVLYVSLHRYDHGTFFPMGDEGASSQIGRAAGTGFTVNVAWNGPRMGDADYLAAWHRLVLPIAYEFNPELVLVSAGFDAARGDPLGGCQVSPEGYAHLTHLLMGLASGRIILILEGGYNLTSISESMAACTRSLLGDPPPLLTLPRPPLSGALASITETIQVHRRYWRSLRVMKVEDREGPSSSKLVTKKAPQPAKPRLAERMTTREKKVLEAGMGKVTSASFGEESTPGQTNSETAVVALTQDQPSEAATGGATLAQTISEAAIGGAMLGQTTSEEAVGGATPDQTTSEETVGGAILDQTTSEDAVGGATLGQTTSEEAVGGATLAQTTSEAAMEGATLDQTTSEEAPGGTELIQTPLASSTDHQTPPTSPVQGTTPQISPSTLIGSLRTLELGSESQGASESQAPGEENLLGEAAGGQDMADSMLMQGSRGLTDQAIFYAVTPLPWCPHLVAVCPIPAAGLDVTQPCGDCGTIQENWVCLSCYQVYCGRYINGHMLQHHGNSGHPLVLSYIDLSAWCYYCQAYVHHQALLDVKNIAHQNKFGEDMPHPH
# PROTOCOL TEXT: HDAC6 enzyme activity inhibition assay (in vitro, fluorimetric)
# Type: biochemical
# MEASUREMENT SETUP: HDAC6 selectivity over HDAC1
Known HDAC6 selectivity (fold) of a selection of compounds
RESULT TYPE: HDAC6 selectivity (fold)

| COMPOUND | BOUND OPERATOR | RESULT NUMBER |
| --- | --- | --- |
| C[C@@H]1CN(Cc2ccc(C(=O)NO)cc2)C[C@H](C)N1C(=O)c1ccc(CN2CCN(C)CC2)cc1 | = | 12 |
| CC(CN(C)Cc1ccccc1)NCc1cccc(C(=O)N2[C@H](C)CN(Cc3ccc(C(=O)NO)cc3)C[C@@H]2C)c1 (stereo partly drawn) | = | 154 |
| C[C@@H]1CN(Cc2ccc(C(=O)NO)cc2)C[C@H](C)N1Cc1cccc(C2=CCOCC2)c1 | = | 332 |
| C[C@@H]1CN(Cc2ccc(C(=O)NO)cc2)C[C@H](C)N1C(=O)c1cccc(Cl)c1 | = | 407 |
| C[C@@H]1CN(Cc2ccc(C(=O)NO)cc2)C[C@H](C)N1C(=O)c1cccc(CN2CCCC2)c1 | = | 22 |
| C[C@@H]1CN(Cc2ccc(C(=O)NO)cc2)C[C@H](C)N1C(=O)c1cccc(C2=CCC(C)(C)CC2)c1 | = | 30 |
| C[C@@H]1CN(C(=O)Nc2cccc(-n3cccc3)c2)C[C@H](C)N1Cc1ccc(C(=O)NO)cc1 | = | 65 |
| C[C@@H]1CN(Cc2ccc(CC(=O)NO)cc2)C[C@H](C)N1Cc1ccccc1 | = | 85 |
| Cc1ccccc1NC(=O)N1C[C@@H](C)N(Cc2ccc(C(=O)NO)cc2)[C@@H](C)C1 | = | 10 |
| C[C@@H]1CN(Cc2ccc(C(=O)NO)cc2)C[C@H](C)N1Cc1cccc(CN2CCCC2)c1 | = | 40 |
| C[C@@H]1CN(Cc2ccccc2)C[C@H](C)N1Cc1ccc(C(=O)NO)cc1 | = | 78 |
| C[C@@H]1CN(Cc2cccc(CN3CCCC3)c2)C[C@H](C)N1Cc1ccc(C(=O)NO)cc1 | = | 12 |
| C[C@@H]1CN(C(=O)c2ccccc2-c2cccnc2)C[C@H](C)N1Cc1ccc(C(=O)NO)cc1 | > | 13 |
| C[C@@H]1CN(Cc2ccc(C(=O)NO)cc2)C[C@H](C)N1C(=O)c1cccc(CN2CCOCC2)c1 | = | 105 |
| C[C@@H]1CN(Cc2ccc(C(=O)NO)cc2)C[C@H](C)N1C(=O)c1ccccc1-c1cccnc1 | = | 81 |
| C[C@@H]1CN(Cc2ccc(C(=O)NO)cc2)C[C@H](C)N1Cc1cccc(-c2cccnc2)c1 | = | 481 |
| C[C@@H]1CN(Cc2ccc(C(=O)NO)cc2)C[C@H](C)N1Cc1ccc(CN2CC(F)(F)C2)cc1 | = | 36 |
| C[C@@H]1CN(Cc2ccc(C(=O)NO)cc2)C[C@H](C)N1Cc1ccccc1CN1CCOCC1 | = | 2 |
| CCN(CC)C[C@@H](C)NCc1cccc(CN2[C@H](C)CN(Cc3ccc(C(=O)NO)cc3)C[C@@H]2C)c1 | = | 93 |
| C[C@@H]1CN(C(=O)Cc2cccc(Cl)c2)C[C@H](C)N1Cc1ccc(C(=O)NO)cc1 | = | 11 |
| C[C@@H]1CN(Cc2ccc(C(=O)NO)cc2)C[C@H](C)N1Cc1ccc(CN2CCOCC2)cc1 | > | 119 |
| C[C@@H]1CN(Cc2ccc(C3=CCOCC3)cc2)C[C@H](C)N1Cc1ccc(C(=O)NO)cc1 | = | 7 |
| CCN(CC)Cc1cccc(CN2C[C@@H](C)N(Cc3ccc(C(=O)NO)cc3)[C@@H](C)C2)c1 | = | 10 |
| COc1cccc(NC(=O)N2C[C@@H](C)N(Cc3ccc(C(=O)NO)cc3)[C@@H](C)C2)c1 | = | 4 |
| C[C@@H]1CN(Cc2ccccc2)C[C@H](C)N1Cc1ccc(C(=O)NO)c(F)c1 | > | 103 |
| C[C@@H]1CN(C(=O)Cc2cccc(C3=CCOCC3)c2)C[C@H](C)N1Cc1ccc(C(=O)NO)cc1 | = | 79 |
| C[C@@H]1CN(C(=O)c2ccccc2)C[C@H](C)N1Cc1ccc(C(=O)NO)cc1 | = | 37 |
| C[C@@H]1CN(Cc2ccc(C(=O)NO)cc2)C[C@H](C)N1C(=O)NCc1ccccc1 | = | 182 |
| C[C@@H]1CN(Cc2ccc(C(=O)NO)cc2)C[C@H](C)N1Cc1ccc(CN2CCCCC2)cc1 | > | 204 |
| CC(C)=CCN1[C@H](C)CN(Cc2ccc(C(=O)NO)cc2)C[C@@H]1C | = | 67 |
